- experiment description: Caspase-3/7 induction in HepG2 cells by small molecules, qHTS cell viability counter screen (AID 1346981); note: nearly all actives have a fitted effect of over 30% in size
- settings: CellTiter-Fluor fluorescence, 17 h; series mostly up to 92.4 µM
Inconclusive results are not listed. Activity calls are given as the source filed them. Calls come from the whole dose curve; as a rule, active = well fitted cell-killing curve with a large enough effect in the repeat runs; inconclusive = weak or mixed curves, or effect the other way; inactive = flat fitted curve, though single readings scatter.
Give one outcome, nothing more. List: active, inactive

- chemical structure: "CC(C)=CCC1=C(O)c2ccccc2C(=O)C1=O"
  answer label: "active"
- chemical structure: "CC(C)(C)NSc1nc2ccccc2s1"
  answer label: "inactive"
- chemical structure: "CC(C)OC(=O)C(O)(CC(=O)O)CC(=O)O"
  answer label: "inactive"

Test call for this compound, please: CCC(CC)(CC(=O)Nc1cccc(/C=C/c2nc(C3CCC3)cs2)c1)C(=O)O inactive

How was CN(C)C(=O)COC(=O)Cc1ccc(OC(=O)c2ccc(N=C(N)N)cc2)cc1 classified in this test? inactive

Assay outcome for C=Cc1cccc(C)c1 : what was it? inactive

GET /call?item= Cc1ccc(C(C)C)cc2c(C)ccc1-2 returns the recorded outcome of this test. inactive

----------
- experiment description: qHTS assay to identify small molecule antagonists of the estrogen related receptor signaling pathway with the pleiotropic PPARgamma coactivator (PGC) from Tox21 10K library (AID 1224841); note: actives are mostly falling curves and most rising ones were filed inactive; nearly all actives have a fitted effect of over 50% in size
- settings: PGC/ERR reporter cell line, ONE-Glo luciferase, 18 h; series mostly up to 92.4 µM
Inconclusive results are not listed. Active and inactive are the calls of the source. How the calls were made is not given here.
Classes to choose from: T = active, F = inactive

- compound: "COC(=O)c1ccccc1C"
  answer label: "F"
- compound: "CCCCCCCCCCCCOCCOCCOCCOCCOCCOCCOCCOCCOCCO"
  answer label: "T"

Tell me the assay call for CCOC(=O)c1ccc(C2CCC(NC[C@H](O)COc3ccc(O)c(NS(C)(=O)=O)c3)CC2)cc1 (stereo not given in full) please. F

State the result this test recorded for COc1cc(C)ccc1O . F

How was CC(C)OC(=O)C(O)(CC(=O)O)CC(=O)O classified in this test? F

Please share the test call associated with CCCCCc1ccc(Cl)cc1 . F

Lab log entry: CC(C)(C)C1CCC(=O)CC1 — outcome as called in the assay? F

Returns: the outcome recorded for Cc1cc(C)c(/C=C2\C(=O)Nc3ccccc32)[nH]1 in this assay. F

Tell me the recorded outcome of this test for Nc1nc2c(ncn2COCCO)c(=O)[nH]1 . F

Which result was noted for this compound in the test: O=C(c1ccc(O)c(O)c1)c1ccc(O)cc1O T

----------
- experiment description: qHTS assay for identifying genotoxic compounds that show differential cytotoxicity against isogenic chicken DT40 cell lines with known DNA damage response pathways - Rev3 mutant cell line (AID 743014); note: nearly all actives have a fitted effect of over 55% in size
- settings: chicken DT40 Rev3-/- viability, CellTiter-Glo, 40 h; series mostly up to 68.4 µM
Inconclusive results are not listed. Active and inactive are the calls of the source. Calls follow the shape of the dose curve; as a rule, active = well fitted cell-killing curve with a large enough effect in the repeat runs; inconclusive = weak or mixed curves, or effect the other way; inactive = no such curve, though single readings can be large or run the other way.
Choose the fitting class; nothing outside 1 (yes) for active, 0 (no) for inactive is accepted.

- compound: "CCCCC(CC)CN1CN(CC(CC)CCCC)CC(C)(N)C1 (stereo not given)"
  answer label: "1 (yes)"
- compound: "O=C(/C=C/c1ccccc1)OC/C=C/c1ccccc1"
  answer label: "1 (yes)"
- compound: "Cc1cc(C(C)(C)C)c(O)c(C)c1Cn1c(=O)n(Cc2c(C)cc(C(C)(C)C)c(O)c2C)c(=O)n(Cc2c(C)cc(C(C)(C)C)c(O)c2C)c1=O"
  answer label: "0 (no)"
- compound: "CN(C)Cc1ccccc1O"
  answer label: "0 (no)"

As a next step, examine the compound that follows.
Check the results log: what was the call for CCCCCc1ccc(Cl)cc1 ? 0 (no)
